Data origin: patent US20150025225A1

Target: T1, cynomolgus monkey EL-C2 tag (cynomolgus monkey, UniProt Q9Y5X9 21-500 (human entry), limits assumed)
T1 construct: used as heparin extract of transfected HEK293F cells; also called cynomolgus EL
T1 chain: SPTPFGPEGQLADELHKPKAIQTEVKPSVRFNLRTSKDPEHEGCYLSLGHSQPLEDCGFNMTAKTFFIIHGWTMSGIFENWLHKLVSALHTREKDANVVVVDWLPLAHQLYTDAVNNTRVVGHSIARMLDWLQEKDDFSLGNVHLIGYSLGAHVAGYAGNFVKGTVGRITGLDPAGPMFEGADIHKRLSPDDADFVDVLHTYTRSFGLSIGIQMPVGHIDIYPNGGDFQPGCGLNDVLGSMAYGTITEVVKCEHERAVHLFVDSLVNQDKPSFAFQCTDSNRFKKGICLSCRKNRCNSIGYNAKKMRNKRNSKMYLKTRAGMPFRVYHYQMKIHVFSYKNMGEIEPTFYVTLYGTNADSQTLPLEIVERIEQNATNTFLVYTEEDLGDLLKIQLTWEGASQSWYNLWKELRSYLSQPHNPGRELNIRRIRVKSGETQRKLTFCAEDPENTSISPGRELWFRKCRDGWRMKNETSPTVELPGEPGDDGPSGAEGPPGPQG
Assay: Biacore SPR; EL captured by anti-C2-tag antibody, antibody as analyte, bivalent fit; column head prints nM, kd/ka gives M
EXPERIMENTAL_ENDPOINT: Kd

| BINDER | EXPERIMENTAL_ENDPOINT | RESULT |
| --- | --- | --- |
| 47B2 antibody (antibody, IgG2a, V domains shown) VH: QVALKESGPGILQPSQTLSLTCSFSGFSLSTSGMGVGWIRQPSGKGLEWLAHIWWHGNKYYSTGLKSRLTISKDTSNNQVFLKIASVDTADTATYYCARISAGYPLDYWGQGTSVTVSS VL: DIQMTQSPSSLSASLGGKVTITCKASQDINKYIVWYQHKPGKGPRLLIHYTSTLQPGFPSRFSGSGSGRDYSLSITNLEPEDIATYYCLQYDNLLWTFGGGTKLEIK | Kd | 1.3 nM |
| 41H8 antibody (antibody, IgG1, V domains shown) VH: QVTLKESGPGILQPSQTLSLTCSFSGFSLSTYGMGVGWIRQPSGKGLEWLAHIWWNENKYYNTDLKSRLTISKDTSNNQVFLKIASVDTADTATYYCARIGPGVPFDYWGQGTTITVSS VL: DIQMTQSPSSLSASLGGKVTITCKASQDINKFIAWYQHKPGKGPRLLIHYTSTLQPGIPSRFNGSGSGRDYSFTISNLEPEDIATYYCLQYDILTWTFGGGTKLEIK | Kd | 0.63 nM |
| 8F5 antibody (antibody, IgG2a, V domains shown) VH: QVTLKESGPGILQPSQTLSLTCSFSGFSLSTSNMGVGWIRQPSGKGLEWLAHIWWNDYKYYNTALKSRLTISKDTSNNQVFLKIASLDTADTATYYCARIGGGTPLDYWGQGTSLTVSS VL: DIQMAQSPSSLSASLGGKVTITCKASQDIHTYIAWYQHKPGKGPRLLMLYTSTLQPGIPSRFSGSGSGRDYSFSISNLEPEDIATYYCLQYDDLLWTFGGGTKLEIK | Kd | 1 nM |
| 3B1 antibody (antibody, IgG1, V domains shown) VH: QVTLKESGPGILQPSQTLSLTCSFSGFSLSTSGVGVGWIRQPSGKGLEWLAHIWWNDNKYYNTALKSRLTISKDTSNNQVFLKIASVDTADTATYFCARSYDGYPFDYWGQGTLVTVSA VL: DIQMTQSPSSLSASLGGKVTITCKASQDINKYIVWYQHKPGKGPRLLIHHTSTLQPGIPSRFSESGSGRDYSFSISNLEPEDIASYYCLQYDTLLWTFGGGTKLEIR | Kd | 0.55 nM |
| 16A11 antibody (antibody, IgG1, V domains shown) VH: QVTLKESGPGILQPSQTLSLTCSFSGFSLSTSGMGVGWVRQPSGKGLEWLAHIWWNDYYYYKTALKSRLTISKDTSNNQVFLKIASVDTVDTATYYCARMAPGTPFPSWGQGTLVTVSA VL: DIQMTQSPSSLSASLGGKVTITCKASQDINRYIAWYQHKPGKGPRLLIHYTSTLQPGIPSRFSGSGSGRDYSFSISNLEPEDIATYYCLQYDILLWTFGGGTKLEIK | Kd | 2.8 nM |
| 25E4 antibody (antibody, IgG2b, V domains shown) VH: QVALKESGPGILQPSQTLSLTCSFSGFSLSTSGMGVGWIRQPSGKGLEWLAHIWWHGNKYYSTALKSRLTISKDTSNNQVFLKIASVDTADTATYYCARISDGYPLDYWGQGTSVTVSS VL: DIQMTQSPSSLSASLGGKVTITCKASQDINKYIVWYQQKPGKGPRLLIHYTSTLQPGFPSRFSGSGSGRDYSLSITNLEPEDIATYYCLQYDNLLWTFGGGTKLEIK | Kd | 0.59 nM |
| 12B10 antibody (antibody, IgG2a, V domains shown) VH: QVTLKESGPGILKPSQTLSLTCSFSGFSLSTSGMGVGWIRQPSGKGLEWLAHIWWNDEKYYNPSLKSQLTISKDTSRNQVFLKITSVDTADTATYYCARSYDGSPFPSWGQGTLVTVSA VL: DIQMTQSPSSLSASLGGKVTITCKASQDINKYIAWFQHKPGKGPRLLMAYPFTLQPGIPSRFSGNGSGRDYSFSISNLEPEDIATYYCLQYDNLLWTFGGGTRLEIK | Kd | 0.2 nM |
